- SYSTEM_UNDER_TEST: UniProtKB Q14524
- PROTOCOL: Qpatch automated patch-clamp, peak Nav1.5 current inhibition, 5-Hz AF-like assay (holding potential -85 mV)
- Assay type: cell-based
- EXPERIMENTAL_CONTEXT: CHO-K1 cells stably expressing human Nav1.5, Table 6, Examples 63-90, read-out: Nav1.5 IC50 (5 Hz, AF Rate)
# IC50 values compiled below
Express your answer in µM, writing the number without its unit.

Here is how some compounds turned out for IC50.
C[C@](O)(CS(N)(=O)=O)c1cccc(-c2nnn(Cc3cccc(Br)c3F)n2)n1    28
C[C@](O)(CS(N)(=O)=O)c1cccc(-c2nnn(Cc3cccc(OC(F)(F)F)c3F)n2)n1    4.8
C[C@](O)(CS(N)(=O)=O)c1cccc(-c2nnn(Cc3ccc(Cl)c(C(F)(F)F)c3)n2)n1    14

--- query ---
In: Please give the measured IC50 for this compound: C[C@](O)(CS(N)(=O)=O)c1cccc(-c2nnn(Cc3cc(F)ccc3Br)n2)n1
Out: 13

###

- SYSTEM_UNDER_TEST: human Nav1.5 (Homo sapiens (Human), UniProt Q14524)
- Sequence (Q14524 whole entry): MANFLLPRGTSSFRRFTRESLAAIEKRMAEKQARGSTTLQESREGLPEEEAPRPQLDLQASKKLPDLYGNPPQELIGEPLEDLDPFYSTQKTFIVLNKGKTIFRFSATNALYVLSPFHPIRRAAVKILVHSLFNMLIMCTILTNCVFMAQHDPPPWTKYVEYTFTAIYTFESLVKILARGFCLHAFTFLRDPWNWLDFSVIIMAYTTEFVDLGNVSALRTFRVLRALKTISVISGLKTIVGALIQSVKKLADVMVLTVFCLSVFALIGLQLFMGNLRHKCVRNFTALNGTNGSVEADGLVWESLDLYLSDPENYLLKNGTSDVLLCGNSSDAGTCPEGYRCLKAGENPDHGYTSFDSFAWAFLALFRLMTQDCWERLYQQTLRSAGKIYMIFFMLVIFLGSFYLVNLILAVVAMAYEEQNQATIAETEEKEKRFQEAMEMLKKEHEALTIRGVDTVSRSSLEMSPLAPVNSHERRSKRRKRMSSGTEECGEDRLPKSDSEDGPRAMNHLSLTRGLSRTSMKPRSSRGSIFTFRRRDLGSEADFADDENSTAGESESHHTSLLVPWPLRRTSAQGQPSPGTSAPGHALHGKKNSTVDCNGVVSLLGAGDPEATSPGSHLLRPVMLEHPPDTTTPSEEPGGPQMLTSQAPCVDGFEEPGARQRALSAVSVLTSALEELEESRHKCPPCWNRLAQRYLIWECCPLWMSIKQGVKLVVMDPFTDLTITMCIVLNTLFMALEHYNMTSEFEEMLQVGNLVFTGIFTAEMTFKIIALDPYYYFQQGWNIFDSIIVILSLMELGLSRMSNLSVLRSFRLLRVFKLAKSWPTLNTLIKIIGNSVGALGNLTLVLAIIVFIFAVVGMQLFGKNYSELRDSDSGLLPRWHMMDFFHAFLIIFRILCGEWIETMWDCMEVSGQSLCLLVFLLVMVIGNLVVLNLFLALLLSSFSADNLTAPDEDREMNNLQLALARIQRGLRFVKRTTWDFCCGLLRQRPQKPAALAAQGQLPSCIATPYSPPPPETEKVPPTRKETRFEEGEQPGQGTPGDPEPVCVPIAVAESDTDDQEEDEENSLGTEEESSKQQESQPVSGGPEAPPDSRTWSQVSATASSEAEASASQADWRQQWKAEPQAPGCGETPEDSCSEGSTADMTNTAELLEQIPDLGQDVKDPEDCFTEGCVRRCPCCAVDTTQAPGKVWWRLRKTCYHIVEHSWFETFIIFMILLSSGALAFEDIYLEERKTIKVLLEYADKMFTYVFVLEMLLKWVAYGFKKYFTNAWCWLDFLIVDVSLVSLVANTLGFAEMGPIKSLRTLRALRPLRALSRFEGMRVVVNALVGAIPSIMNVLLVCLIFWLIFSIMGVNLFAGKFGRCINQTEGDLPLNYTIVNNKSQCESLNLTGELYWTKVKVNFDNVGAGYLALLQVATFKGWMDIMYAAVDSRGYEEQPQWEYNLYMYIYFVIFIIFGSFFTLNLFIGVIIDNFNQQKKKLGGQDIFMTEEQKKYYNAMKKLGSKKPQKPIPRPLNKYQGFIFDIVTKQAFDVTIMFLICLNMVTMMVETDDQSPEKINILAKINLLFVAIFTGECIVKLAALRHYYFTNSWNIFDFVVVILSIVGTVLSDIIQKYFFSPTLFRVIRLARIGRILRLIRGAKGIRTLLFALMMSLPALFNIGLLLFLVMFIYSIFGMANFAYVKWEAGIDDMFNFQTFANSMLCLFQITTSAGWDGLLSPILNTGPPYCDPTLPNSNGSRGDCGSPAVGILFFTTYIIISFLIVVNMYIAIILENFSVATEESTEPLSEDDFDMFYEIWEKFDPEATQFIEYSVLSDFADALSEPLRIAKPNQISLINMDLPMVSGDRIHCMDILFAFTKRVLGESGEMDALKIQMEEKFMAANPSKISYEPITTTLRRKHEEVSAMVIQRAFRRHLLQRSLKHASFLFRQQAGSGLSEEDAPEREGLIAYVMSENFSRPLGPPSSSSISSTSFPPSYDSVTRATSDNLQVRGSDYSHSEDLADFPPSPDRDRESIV
- PROTOCOL: Qpatch automated patch-clamp, peak Nav1.5 current inhibition, 5-Hz AF-like assay (holding potential -85 mV)
- Assay type: cell-based
- EXPERIMENTAL_CONTEXT: CHO-K1 cells stably expressing human Nav1.5, Table 6, Examples 63-90, read-out: Nav1.5 IC50 (5 Hz, AF Rate)
- From the text: Electrophysiology was used to measure the ionic currents in isolated living cells using automated patch-clamp recording, performed using an automated patch-clamp machine called Qpatch (Sophion Bioscience). Two different assay conditions were used to identify compounds with atrial-selective potential. The 5-Hz AF-like assay has more depolarized holding potential at −85 mV to mimic atrial resting membrane potential (RMP) and was used to identify compounds of strong rate-dependence. […]
MEASURE_NAME: IC50 (µM)
Express your answer in µM, writing the number without its unit.

In: Please give the measured IC50 for this compound: C[C@](O)(CS(N)(=O)=O)c1cccc(-c2nnn(Cc3cc(Cl)ccc3C(F)(F)F)n2)n1
Out: 27

In: Please give the measured IC50 for this compound: C[C@](O)(CS(N)(=O)=O)c1cccc(-c2nnn(Cc3cc(Cl)cc(Cl)c3Cl)n2)n1
Out: 8.9

In: Please give the measured IC50 for this compound: Cc1cc(C)c(C)c(Cn2nnc(-c3cccc([C@@](C)(O)CS(N)(=O)=O)n3)n2)c1
Out: 16

In: Please give the measured IC50 for this compound: C[C@](O)(CS(N)(=O)=O)c1cccc(-c2nnn(Cc3cc(Cl)c(F)cc3F)n2)n1
Out: 21

###

- SYSTEM_UNDER_TEST: human Nav1.5 (Homo sapiens (Human), UniProt Q14524)
- PROTOCOL: Qpatch automated patch-clamp, peak Nav1.5 current inhibition, 5-Hz AF-like assay (holding potential -85 mV)
- Assay type: cell-based
- EXPERIMENTAL_CONTEXT: CHO-K1 cells stably expressing human Nav1.5, holding potential -85 mV, Table 5, read-out: Nav1.5 IC50 (5 Hz, AF Rate)
Response field label: string, one of t (IC50 strictly below 7 µM) or f.

CC(c1cccc(-c2nnn(Cc3cc(OC(F)(F)F)ccc3F)n2)n1)C(CO)S(N)(=O)=O (single isomer, unassigned) [Example 32]    t

In: Please determine if CC(O)(CS(N)(=O)=O)c1cccc(-c2nnn(Cc3cc(OC(F)(F)F)ccc3F)n2)c1F (single isomer, unassigned) [Example 12] is below 7 µM in terms of IC50.
Out: t

In: Please determine if CC(C(O)c1cccc(-c2nnn(Cc3cc(OC(F)(F)F)ccc3F)n2)n1)S(N)(=O)=O (single isomer, unassigned) [Example 50] is below 7 µM in terms of IC50.
Out: t

In: Please determine if CC(O)(CS(N)(=O)=O)c1cccc(-c2nnn(Cc3c(F)ccc4c3OC(F)(F)O4)n2)n1 (single isomer, unassigned) [Example 3] is below 7 µM in terms of IC50.
Out: f

In: Please determine if CC(O)(CS(N)(=O)=O)c1cccc(-c2nnn(Cc3cc(C(F)(F)F)ccc3F)n2)n1 (single isomer, unassigned) [Example 20] is below 7 µM in terms of IC50.
Out: f

In: Please determine if CC(O)(CS(N)(=O)=O)c1cc(F)cc(-c2nnn(Cc3cc(OC(F)(F)F)ccc3F)n2)c1 (single isomer, unassigned) [Example 23] is below 7 µM in terms of IC50.
Out: t

Data provenance: patent US20250034108A1
